Test system: Zymoseptoria tritici (SEPTTR-184)
method.notes: Cyp51 dsRNA tile (fragment) foliar application bioassay (Example 6)
Format: in vivo
assay.context: 1 day protectant; rate 200 ppm; average of 2 trials
Below, each entry is listed alongside its reported Disease Control (%) SEPTTR-184 1DP.
readout.kind: Disease Control (%) SEPTTR-184 1DP

molecule="MgCyp51-T10: dsRNA tile of Zymoseptoria tritici Cyp51, 172 bp, location 345-516 (nucleic acid, listed as Zymoseptoria tritici) GGACGTCAACGCGGAGGAGATATACAGCCCGCTGACCACTCCTGTCTTTGGCAAGGATGTGGTTTATGATTGTCCCAATTCGAAGCTCATGGAGCAGAAGAAGTTCGTCAAGTACGGCCTCACAACCTCTGCCCTCCAGTCCTACGTGACCTTGATCGCCGCCGAGACCCGC" measured_value=75
molecule="MgCyp51-T8: dsRNA tile of Zymoseptoria tritici Cyp51, 242 bp, location 1151-1392 (nucleic acid, listed as Zymoseptoria tritici) TTCTGCGCAAGGTCAAGTCTCCCATGCCCATCGAAGGTACGGCATACGTCATTCCAACCACCCACACTCTTCTGGCCGCTCCGGGCACAACGAGCCGCATGGACGAGCACTTTCCCGACTGCCTCCATTGGGAGCCGCATCGATGGGACGAGAGCCCGTCCGAGAAATACAAGCACCTGTCCCCGACGACTGCCCTAGGAAGCATCGCCGAGGAGAAAGAAGACTATGGCTACGGCCTGGTA" measured_value=74
molecule="MgCyp51-T1: dsRNA tile of Zymoseptoria tritici Cyp51, 232 bp, location 166-397 (nucleic acid, listed as Zymoseptoria tritici) GTATTCCACTGGGTGCCCTTCATCGGAAGCACCATCACATACGGCATCGACCCATACAAGTTCTTCTTCTCCTGTCGGGAAAAGTATGGAGATGTCTTTACATTCATCCTGCTGGGAAAGAAGACGACGGTGTGCTTGGGCACCAAGGGCAATGATTTTATTTTGAATGGAAAACTGAAGGACGTCAACGCGGAGGAGATATACAGCCCGCTGACCACTCCTGTCTTTGGCA" measured_value=77
